System: HOP-62 NSCLC
Test name: NCI tumour cell line growth inhibition, 48 h
Recorded TGI values for a group of compounds are listed next.
Measured property: TGI

compound=CS(=O)(=O)OCCn1cnc2nc(NC(=O)c3ccccc3)[nH]c(=O)c21 recorded_value="> 100 µM"
compound=CCCCNc1c(CN)cnc2cc(Cl)ccc12 recorded_value="35.4 µM"
compound="O=C1OC(CC(=O)c2ccc(Cl)cc2Cl)C(Cl)=C1Cl (stereo not given)" recorded_value="> 100 µM"
compound="CC1=CCC(OC(=O)C(C)(C)CCC(O)(C(=O)OC2(C(C)C)CCC3(C)OC3C2)C(C)C)(C(C)C)CC1 (stereo not given)" recorded_value="1.63 µM"
compound=COc1ccc(N=Nc2ccc3oc(=O)c(C(=O)Nc4ccccc4)cc3c2)cc1 recorded_value="> 10 µM"
compound=Nc1c(Br)c(=O)[nH]c(=O)n1COCCO recorded_value="> 100 µM"
compound=C#CCOCn1ccc(=O)[nH]c1=O recorded_value="> 100 µM"
compound=Cc1nc2cnc3cc(F)c(-c4ccc(Oc5ncccn5)cc4Cl)cc3c2n1[C@H]1CCN(C(=O)CO)C[C@@H]1F recorded_value="49.3 µM"
compound=O=C(/C=C/c1ccc(Cl)c(Cl)c1)c1ccc(F)cc1 recorded_value="> 100 µM"
compound=CC1=C(O)C(=O)C[C@]2(C)[C@H]3CC=C4[C@@H]5CC(C)(C)CC[C@@H]5C(=O)[C@H](O)[C@@]4(C)[C@]3(C)CC[C@@H]12 recorded_value="> 50 µM"
compound="CCOC(=O)NC(C(=O)OCC)C(F)(F)F (stereo not given)" recorded_value="> 100 µM"
compound="O=C(Cc1ccccc1)NN1C(=O)C(Cl)C1c1ccc([N+](=O)[O-])cc1 (stereo not given)" recorded_value="> 100 µM"
compound=COc1ccc(N(C)Sc2ccccc2)cc1 recorded_value="> 100 µM"
compound="COc1cc(/C=C/C(=O)OC2C(O)C3CC(OC(=O)c4cc(OC)c(OC)c(OC)c4)CC2N3C)cc(OC)c1OC (stereo not given)" recorded_value="> 50 µM"
compound=Cc1nc(Nc2ccc(F)cc2)c2sc(=S)n(-c3ccc(F)cc3)c2n1 recorded_value="24.1 µM"
